target entity: lens aldose reductase (Bos taurus, UniProt P16116)
Construct: the preparation of the enzyme from bovine lens; from tissue; host or cells: bovine lens
protocol notes: in vitro aldose reductase inhibition (modified Hayman and Kinoshita procedure)
Type: biochemical
particulars: 10^-6 molar; enzyme from bovine lens; read-out: % Inhibition at Different Molar Concentrations (in vitro)
metric name: inhibition at 1 µM (%)
Write the number in % without appending the unit.

As a guide, the following entries are already answered.
compound string: O=C(O)CN1C(=S)c2cccc3c(F)ccc1c23
inhibition at 1 µM [%]: 88
--
compound string: O=C(O)CN1C(=S)c2cccc3c(Cl)cc(Cl)c1c23
inhibition at 1 µM [%]: 76
--
compound string: CN(C)CCCOC(=O)CN1C(=S)c2cccc3c(Cl)ccc1c23
inhibition at 1 µM [%]: 70
--
compound string: O=C(O)CN1C(=S)c2cccc3c(Br)cc(Br)c1c23
inhibition at 1 µM [%]: 56

Given item "NCCOC(=O)CN1C(=S)c2cccc3cccc1c23" , the value recorded as its inhibition at 1 µM is 29

Given item "CCOC(=O)CN1C(=S)c2cccc3cccc1c23" , the value recorded as its inhibition at 1 µM is 11

Given item "O=C(O)CN1C(=S)c2cccc3c(Cl)ccc1c23" , the value recorded as its inhibition at 1 µM is 91

Given item "O=C(O)CN1C(=S)c2cccc3cccc1c23" , the value recorded as its inhibition at 1 µM is 87

Given item "O=C(O)CN1C(=S)c2cccc3c(Br)ccc1c23" , the value recorded as its inhibition at 1 µM is 91

Given item "O=C(O)CN1C(=S)c2cccc3c(I)ccc1c23" , the value recorded as its inhibition at 1 µM is 91
